test system: primary human hepatic stellate cells (donor 1); assay: scaled lipid accumulation score (0 = DMSO-like, 1 = nortriptyline-like); higher = stronger HSC inactivation (lipid re-accumulation), active = hit call of the paper; details: library stock concentration: 3.33 mM; 48 h
Where a name gives a salt, the structure may show the parent alone. Out of some 5,800 compounds screened, about 620 (11%) showed activity.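 How the source made its calls: active = score above a cut-off or among the top three wells of a plate; in these data no inactive exceeds 0.85.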 The sample holds actives, similar compounds and a random draw of the others, so the mix is not that of the screen.
Return exactly one item of active, inactive

In: Could you kindly confirm the outcome this assay logged for COc1nc(C)cnc1NS(=O)(=O)c1cccnc1-c1ccc(-c2nnco2)cc1 [Zibotentan (ZD4054)] ?
Out: inactive

In: Could you kindly confirm the outcome this assay logged for Cc1ccc(NC(=O)c2ccc(CN3CCN(C)CC3)cc2)cc1Nc1nccc(-c2cccnc2)n1 [Imatinib Mesylate (STI571)] ?
Out: inactive

In: Could you kindly confirm the outcome this assay logged for COc1ccc2nc3n[nH]c(C)c3c(NCCOCCO)c2c1 ?
Out: inactive

In: Could you kindly confirm the outcome this assay logged for CC(COc1ccccc1)N(CCCl)Cc1ccccc1 (configuration not stated) [Phenoxybenzamine HCl] ?
Out: inactive

In: Could you kindly confirm the outcome this assay logged for c1([C@]2(C(=O)OC)c3c(c4c(cccc4)[nH]3)CN(CC5C2)CC(CC)=C5)cc6c(N(C)[C@]7([H])[C@]6(CC8)[C@]([H])(N89)[C@@](CC)(C=CC9)[C@@H](OC(=O)C)[C@]7(O)C(=O)OC)cc1OC.C(=O)(O)[C@H](O)[C@@H](O)C(=O)O.C(=O)(O)[C@H](O) (some centres not stated) [Vinorelbine Tartrate] ?
Out: active

In: Could you kindly confirm the outcome this assay logged for O=c1cc(CN2CCOCC2)occ1OCCCCCSc1ccnc2cc(C(F)(F)F)ccc12 ?
Out: inactive

In: Could you kindly confirm the outcome this assay logged for Cc1cc(C)c(Nc2ccnc(Nc3ccc(C#N)cc3)n2)c(C)c1 ?
Out: inactive
